system: MOLT-4 leukemia; test: NCI-60 one-dose screen, 48 h (100 = growth as untreated, 0 = no growth, -100 = all killed); details: 10 µM unless noted
About 83,000 compounds went through this panel and 20% of them were active in at least one assay; those are over-represented in the sample as a whole.
Response field label: string, one of Criterion met (growth strictly below 30%) or Criterion not met.

>>> category_label("Cc1nc2sc(C(=O)Nc3cccc4ccccc34)c(N)c2cc1C(O)c1ccccc1 (stereo not given)")
"Criterion met"
>>> category_label("C#CCOc1cccc(Nc2ncnc3ccc(NC(=O)C=C)cc23)c1")
"Criterion not met"
>>> category_label("CCN(CC)CC(O)COc1c(Br)c(Br)c(Br)c2c1OC(C)(C)C2 (stereo not given)")
"Criterion met"
>>> category_label("COCCn1cc(-c2nc(-c3cc4cccnc4[nH]3)cs2)c2cc(OC)ccc21")
"Criterion met"
>>> category_label("COc1ccc(-c2nc3cc(C(=O)NCc4ccccc4)ccc3n2C2CCCCC2)cc1")
"Criterion not met"
